Below, each entry is listed with its recorded LD50 at 360 h.
Assay: Acute toxicity in mice after oral administration
Details: mouse, in vivo, suspended in 10% gum arabic, survivors checked at 15 days
Method: The compounds have been administered at increasing doses (in geometric progression) to groups of five .female. SWISS, EOPS, NMRI/Han mice originating from the breeding of EVIC CEBA and of mean weight 25 g. For oral administration, they are suspended in a 10% gum arabic solution. The LD 50s are calculated by the method of Behrens (B) and Karber (C), (Arch. Exp. Path. Pharmakol. 1935, 177, 379-388). […]
# output: bare number, implied unit mg/kg

Reference set, count: 2
molecule | outcome-measure | numeric-value
Cc1c(NCC(=O)O)cccc1C(=O)c1ccc(Cl)cc1 [LJ 846] | LD50 at 360 h | 1600
CC(Nc1cccc(C(=O)c2ccccc2)c1)C(=O)O (stereo not drawn) [LJ 843, monohydrate] | LD50 at 360 h | 3750

QUERY: GET /values?readout=LD50 at 360 h&item= CC(Nc1ccccc1C(=O)c1ccccc1)C(=O)O (stereo not drawn) [LJ 855]
RESULT: 1000

QUERY: State the recorded LD50 at 360 h for this entry: Cc1ccc(C(=O)c2cccc(NC(C)C(=O)O)c2)cc1 (stereo not drawn) [LJ 867]
RESULT: 2620

QUERY: Please give the measured LD50 at 360 h for this molecule: Cc1c(NC(C)C(=O)O)cccc1C(=O)c1ccc(Cl)cc1 (stereo not drawn) [LJ 857]
RESULT: 1250

QUERY: Reported LD50 at 360 h for O=C(O)CNc1cccc(C(=O)c2ccccc2)c1 [LJ 850] : what is it?
RESULT: 675

QUERY: What value of LD50 at 360 h has been recorded for this entry: CC(=O)Oc1ccccc1C(=O)O [Aspirin, reference compound]
RESULT: 1500

QUERY: I have this molecule here, C[C@H](Nc1cccc(C(=O)c2ccccc2)c1)C(=O)O [LJ 874, N-(3-Benzoylphenyl)-alanine] , and I need its recorded LD50 at 360 h.
RESULT: 2500

QUERY: # input molecule: Cc1ccc(C(=O)c2ccccc2)cc1NC(C)C(=O)O (stereo not drawn) [LJ 869] ; wanted: its LD50 at 360 h
RESULT: 1300

QUERY: Return reported LD50 at 360 h; argument: CC(Nc1cccc(C(=O)c2ccc(Cl)cc2)c1)C(=O)O (stereo not drawn) [LJ 845]
RESULT: 1750

QUERY: Fill in the blank: the reported LD50 at 360 h of Cc1c(NCC(=O)O)cccc1C(=O)c1ccccc1 [LJ 861] is ____.
RESULT: 1300

QUERY: Requested read-out: LD50 at 360 h. Entry: CC(Nc1ccc(C(=O)c2ccccc2)cc1)C(=O)O (stereo not drawn) [LJ 854]
RESULT: 1880

QUERY: What value of LD50 at 360 h has been recorded for this entry: CC(Nc1ccc(C(=O)c2cccs2)cc1)C(=O)O (stereo not drawn) [LJ 858]
RESULT: 1880

QUERY: Please look up its LD50 at 360 h: CC(Nc1ccc(Cl)c(C(=O)c2ccccc2)c1)C(=O)O (stereo not drawn) [LJ 868]
RESULT: 1800

QUERY: # lookup: LD50 at 360 h of CC(Nc1cccc(C(=O)c2cccs2)c1)C(=O)O (stereo not drawn) [LJ 859]
RESULT: 2500

###

tested on: painful syndrome provoked in mice by phenylbenzoquinone; assay: animal or person; format: in vivo; conditions: Mus musculus, read-out: Percentage Protection
Below, each entry is listed with its recorded inhibition in vivo at 160 mg/kg.
Respond with the bare value in %.

molecule | experimental-target | outcome-measure | value-unit | numeric-value
CN(CC(=O)O)c1cccc(C(=O)c2ccccc2)c1 | painful syndrome provoked in mice by phenylbenzoquinone | inhibition in vivo at 160 mg/kg | % | 78
Cc1c(NCC(=O)O)cccc1C(=O)c1ccccc1 | painful syndrome provoked in mice by phenylbenzoquinone | inhibition in vivo at 160 mg/kg | % | 90
Cc1ccc(C(=O)c2ccccc2)cc1NCC(=O)O | painful syndrome provoked in mice by phenylbenzoquinone | inhibition in vivo at 160 mg/kg | % | 59

QUERY: Record lookup: for painful syndrome provoked in mice by phenylbenzoquinone, what inhibition in vivo at 160 mg/kg belongs to O=C(c1ccccc1)c1cccc(NC(C(=O)O)c2ccccc2)c1 (stereo not shown) ?
RESULT: 31

###

In this section we review reported inhibition in vivo at 80 mg/kg values for a set of molecules.
tested on: painful syndrome provoked in mice by phenylbenzoquinone; test: animal or person; type: in vivo; settings: Mus musculus, read-out: Percentage Protection
// return numeric value only (unit: %, not printed)

// known answers, use as guide
molecule | value-unit | inhibition in vivo at 80 mg/kg
CN(CC(=O)O)c1cccc(C(=O)c2ccccc2)c1 | % | 49
O=C(c1ccccc1)c1cccc(NC(C(=O)O)c2ccccc2)c1 (centres unmarked) | % | 22
Cc1c(NCC(=O)O)cccc1C(=O)c1ccccc1 | % | 52

QUERY: Reported inhibition in vivo at 80 mg/kg for `Cc1c(NCC(=O)O)cccc1C(=O)c1ccc(Cl)cc1` : what is it?
RESULT: 90

QUERY: Would you mind telling me what inhibition in vivo at 80 mg/kg value was observed for `Cc1ccc(C(=O)c2ccccc2)cc1NCC(=O)O` ?
RESULT: 34

###

test system: painful syndrome provoked in mice by phenylbenzoquinone; test: animal or person; assay type: in vivo; conditions: Mus musculus, read-out: Percentage Protection
outcome-measure: inhibition in vivo at 20 mg/kg (%)
Provide the reading as a plain figure in %.

Observe how each entry below is paired with its result.
smi | experimental-target | inhibition in vivo at 20 mg/kg, %
Cc1ccc(C(=O)c2ccccc2)cc1NCC(=O)O | painful syndrome provoked in mice by phenylbenzoquinone | 3
Cc1c(NCC(=O)O)cccc1C(=O)c1ccc(Cl)cc1 | painful syndrome provoked in mice by phenylbenzoquinone | 48
Cc1c(NCC(=O)O)cccc1C(=O)c1ccccc1 | painful syndrome provoked in mice by phenylbenzoquinone | 24

# input for lookup
QUERY: Which inhibition in vivo at 20 mg/kg is listed for `CN(CC(=O)O)c1cccc(C(=O)c2ccccc2)c1` ?
RESULT: 6

###

Reported inhibition in vivo at 40 mg/kg by item:
System: painful syndrome provoked in mice by phenylbenzoquinone
Assay: animal or person
Format: in vivo
Conditions: Mus musculus, read-out: Percentage Protection
Method: There is used the phenylbenzoquinone test according to a technique adapted from that of Siegmund (E), Proc. Soc. Exp. Biol. Med. 1957, 95, No. 4, 729-731. It is attempted to antagonise, by previous administration (30 minutes before) of the test compounds, the painful syndrome provoked in mice (groups of 10 animals) by interperitoneal injection of phenylbenzoquinone and characterised by intermittent contractions of the abdomen, periodic torsions of the trunk and extension of the rear paws. […]
Field format: number, assumed %, no unit text.

compound | experimental-target | value-unit | inhibition in vivo at 40 mg/kg
Cc1ccc(C(=O)c2ccccc2)cc1NCC(=O)O | painful syndrome provoked in mice by phenylbenzoquinone | % | 22
CN(CC(=O)O)c1cccc(C(=O)c2ccccc2)c1 | painful syndrome provoked in mice by phenylbenzoquinone | % | 24
O=C(c1ccccc1)c1cccc(NC(C(=O)O)c2ccccc2)c1 (centres unmarked) | painful syndrome provoked in mice by phenylbenzoquinone | % | 7

QUERY: Give its inhibition in vivo at 40 mg/kg value. Item: `Cc1c(NCC(=O)O)cccc1C(=O)c1ccccc1`
RESULT: 36

QUERY: Name the recorded inhibition in vivo at 40 mg/kg for `Cc1c(NCC(=O)O)cccc1C(=O)c1ccc(Cl)cc1` .
RESULT: 75
